Kindly state koff for each of the entries shown.
Molecular target: T1, cynomolgus monkey BCMA (cynomolgus monkey, UniProt A0A2K5UD97 1-53)
T1 construct: Soluble analyte in SPR; construct not described; also called cyBCMA; Cyno BCMA
T1 sequence (A0A2K5UD97 entry or part of it): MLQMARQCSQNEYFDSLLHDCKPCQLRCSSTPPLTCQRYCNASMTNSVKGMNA
Assay: SPR, IgG on chip, cyBCMA analyte

Problem: Please look at this binder and report its koff: A02_Rd4_0.6nM_C26 (antibody, V domains shown, IgG) VH: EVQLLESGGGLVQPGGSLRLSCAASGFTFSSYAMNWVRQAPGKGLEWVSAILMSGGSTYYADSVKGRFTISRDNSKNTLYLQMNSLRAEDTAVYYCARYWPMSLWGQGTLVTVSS VL: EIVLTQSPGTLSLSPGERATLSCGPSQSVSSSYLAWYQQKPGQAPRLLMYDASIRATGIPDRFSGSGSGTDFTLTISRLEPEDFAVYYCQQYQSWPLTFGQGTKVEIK
Solution: 0.00256 s⁻¹

Problem: Please look at this binder and report its koff: COMBO_Rd4_0.6nM_C09 (antibody, V domains shown, IgG) VH: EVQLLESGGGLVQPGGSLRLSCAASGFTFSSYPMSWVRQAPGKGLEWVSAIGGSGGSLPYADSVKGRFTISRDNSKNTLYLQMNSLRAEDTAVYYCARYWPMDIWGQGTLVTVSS VL: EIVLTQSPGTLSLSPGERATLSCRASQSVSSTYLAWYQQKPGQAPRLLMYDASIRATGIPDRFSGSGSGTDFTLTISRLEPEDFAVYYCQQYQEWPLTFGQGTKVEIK
Solution: 0.000346 s⁻¹

Problem: Please look at this binder and report its koff: A02_Rd4_6nM_C23 (antibody, V domains shown, IgG) VH: EVQLLESGGGLVQPGGSLRLSCAASGFTFSSYAMNWVRQAPGKGLEWVSAISDSGGSGWYADSVKGRFTISRDNSKNTLYLQMNSLRAEDTAVYYCARYWPMSLWGQGTLVTVSS VL: EIVLTQSPGTLSLSPGERATLSCRASQSVSVEYLAWYQQKPGQAPRLLMYDASIRATGIPDRFSGSGSGTDFTLTISRLEPEDFAVYYCQQYARWPLTFGQGTKVEIK
Solution: 0.000414 s⁻¹
